# Test system: 782815-120-R-J1-PDC complex spheroid viability
# run_description: Anticancer human tumor 782815-120-R-J1-PDC patient-derived colon adenocarcinoma cell line growth inhibition [RAS]
# condition_info: second compound 0.03 µM; first compound 0.0316 µM; stronger effect = lower value
reported_property: viability, T/C

Nc1ccn(C2OC(CO)C(O)C2(F)F)c(=O)n1 (configuration not stated) + CCn1c(-c2cccnc2C(C)OC)c2c3cc(ccc31)N1CCOC(CC(NC(=O)C(C(C)C)N(C)C(=O)C3(F)CCN(C(=O)C#CC(C)(C)N(C)C)CC3)C(=O)N3CCCC(N3)C(=O)OCC(C)(C)C2)C1 ... 53.2%

Proceeding to the next compound to report its viability, T/C.
Inquiry: # input compound: CCC(CC)c1cc(NC2CCC(N)C2)n2nccc2n1 (configuration not stated) + CCn1c(-c2cc(N3CCN(C)CC3)cnc2C(C)OC)c2c3cc(ccc31)-c1csc(n1)CC(NC(=O)C1CC1C)C(=O)N1CCCC(N1)C(=O)OCC(C)(C)C2 ; wanted: its viability, T/C
Reply text: 21.2%

###

# Tested on: 782815-120-R-J1-PDC complex spheroid viability
# run_description: Anticancer human tumor 782815-120-R-J1-PDC cell line growth inhibition [RAS];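 note: spheroids exposed to compounds for 7 days before reading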;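 for viability, T/C: 100% = DMSO vehicle control viability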
# condition_info: second compound 0.003 µM; first compound 0.00316 µM; stronger effect = lower value
reported_property: viability, T/C

Nc1ccn(C2OC(CO)C(O)C2(F)F)c(=O)n1 (stereo not drawn) + CCn1c(-c2cc(N3CCN(C)CC3)cnc2C(C)OC)c2c3cc(ccc31)-c1csc(n1)CC(NC(=O)C1CC1C)C(=O)N1CCCC(N1)C(=O)OCC(C)(C)C2 ... 60.9%
CC(C)n1nc(-c2ccc3oc(N)nc3c2)c2c(N)ncnc21 + CCn1c(-c2cccnc2C(C)OC)c2c3cc(ccc31)N1CCOC(CC(NC(=O)C(C(C)C)N(C)C(=O)C3(F)CCN(C(=O)C#CC(C)(C)N(C)C)CC3)C(=O)N3CCCC(N3)C(=O)OCC(C)(C)C2)C1 ... 91.7%
C=CC(=O)N1CCN(c2nc(OCC3CCCN3C)nc3c(F)c(-c4nc(N)cc(C)c4C(F)(F)F)c(Cl)cc23)C(C)C1 (stereo not drawn) + CCn1c(-c2cc(N3CCN(C)CC3)cnc2C(C)OC)c2c3cc(ccc31)-c1csc(n1)CC(NC(=O)C1CC1C)C(=O)N1CCCC(N1)C(=O)OCC(C)(C)C2 ... 57.1%

Inquiry: # input molecule: CCN1CCN(Cc2ccc(Nc3ncc(F)c(-c4cc(F)c5nc(C)n(C(C)C)c5c4)n3)nc2)CC1 + CCn1c(-c2cc(N3CCN(C)CC3)cnc2C(C)OC)c2c3cc(ccc31)-c1csc(n1)CC(NC(=O)C1CC1C)C(=O)N1CCCC(N1)C(=O)OCC(C)(C)C2 ; wanted: its viability, T/C
Reply text: 58.6%

Inquiry: # input molecule: O=C(c1ccc(F)c(F)c1Nc1ccc(I)cc1F)N1CC(O)([C@@H]2CCCCN2)C1 + CCn1c(-c2cc(N3CCN(C)CC3)cnc2C(C)OC)c2c3cc(ccc31)-c1csc(n1)CC(NC(=O)C1CC1C)C(=O)N1CCCC(N1)C(=O)OCC(C)(C)C2 ; wanted: its viability, T/C
Reply text: 59.4%

Inquiry: # input molecule: O=C(c1ccc(F)c(F)c1Nc1ccc(I)cc1F)N1CC(O)([C@@H]2CCCCN2)C1 + CCn1c(-c2cccnc2C(C)OC)c2c3cc(ccc31)N1CCOC(CC(NC(=O)C(C(C)C)N(C)C(=O)C3(F)CCN(C(=O)C#CC(C)(C)N(C)C)CC3)C(=O)N3CCCC(N3)C(=O)OCC(C)(C)C2)C1 ; wanted: its viability, T/C
Reply text: 85.9%

Inquiry: # input molecule: C=CC(=O)N1CCN(c2nc(OCC3CCCN3C)nc3c(F)c(-c4nc(N)cc(C)c4C(F)(F)F)c(Cl)cc23)C(C)C1 (stereo not drawn) + CCn1c(-c2cccnc2C(C)OC)c2c3cc(ccc31)N1CCOC(CC(NC(=O)C(C(C)C)N(C)C(=O)C3(F)CCN(C(=O)C#CC(C)(C)N(C)C)CC3)C(=O)N3CCCC(N3)C(=O)OCC(C)(C)C2)C1 ; wanted: its viability, T/C
Reply text: 91.3%

Inquiry: # input molecule: Nc1ccn(C2OC(CO)C(O)C2(F)F)c(=O)n1 (stereo not drawn) + CCn1c(-c2cccnc2C(C)OC)c2c3cc(ccc31)N1CCOC(CC(NC(=O)C(C(C)C)N(C)C(=O)C3(F)CCN(C(=O)C#CC(C)(C)N(C)C)CC3)C(=O)N3CCCC(N3)C(=O)OCC(C)(C)C2)C1 ; wanted: its viability, T/C
Reply text: 95%

###

# System: 782815-120-R-J1-PDC complex spheroid viability
# run_description: Anticancer human tumor 782815-120-R-J1-PDC cell line growth inhibition [RAS];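 note: spheroids exposed to compounds for 7 days before reading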
# condition_info: curve of first compound; second compound 0.00949 µM
As shown below, each of these compounds has a reported IC50 value.

Example compounds with recorded IC50:
C=CC(=O)Nc1cc(Nc2nccc(-c3cn(C)c4ccccc34)n2)c(OC)cc1N(C)CCN(C)C + CCn1c(-c2cccnc2C(C)OC)c2c3cc(ccc31)N1CCOC(CC(NC(=O)C(C(C)C)N(C)C(=O)C3(F)CCN(C(=O)C#CC(C)(C)N(C)C)CC3)C(=O)N3CCCC(N3)C(=O)OCC(C)(C)C2)C1 ... > 1000 nM
CC(C)NCC(C(=O)N1CCN(c2ncnc3c2C(C)CC3O)CC1)c1ccc(Cl)cc1 (centres undefined) + CCn1c(-c2cccnc2C(C)OC)c2c3cc(ccc31)N1CCOC(CC(NC(=O)C(C(C)C)N(C)C(=O)C3(F)CCN(C(=O)C#CC(C)(C)N(C)C)CC3)C(=O)N3CCCC(N3)C(=O)OCC(C)(C)C2)C1 ... > 10000 nM
O=C(c1ccc(F)c(F)c1Nc1ccc(I)cc1F)N1CC(O)([C@@H]2CCCCN2)C1 + CCn1c(-c2cc(N3CCN(C)CC3)cnc2C(C)OC)c2c3cc(ccc31)-c1csc(n1)CC(NC(=O)C1CC1C)C(=O)N1CCCC(N1)C(=O)OCC(C)(C)C2 ... < 3.16 nM

Inquiry: # input compound: Nc1ccn(C2OC(CO)C(O)C2(F)F)c(=O)n1 (centres undefined) + CCn1c(-c2cccnc2C(C)OC)c2c3cc(ccc31)N1CCOC(CC(NC(=O)C(C(C)C)N(C)C(=O)C3(F)CCN(C(=O)C#CC(C)(C)N(C)C)CC3)C(=O)N3CCCC(N3)C(=O)OCC(C)(C)C2)C1 ; wanted: its IC50
Reply text: 31.5 nM

###

# System: 782815-120-R-J1-PDC complex spheroid viability
# run_description: Anticancer human tumor 782815-120-R-J1-PDC cell line growth inhibition [RAS];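 note: spheroids exposed to compounds for 7 days before reading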
# condition_info: curve of first compound; second compound 0.00949 µM
pIC50: −log10 of the molar value.
reported_property: pIC50

Cc1nc(N2CCC3(CC2)COC(C)C3N)c(CO)nc1Sc1ccnc(N)c1Cl (configuration not stated) + CCn1c(-c2cc(N3CCN(C)CC3)cnc2C(C)OC)c2c3cc(ccc31)-c1csc(n1)CC(NC(=O)C1CC1C)C(=O)N1CCCC(N1)C(=O)OCC(C)(C)C2 ... > 7.50

Proceeding to the next molecule to report its pIC50.
Inquiry: # input molecule: CCc1c2c(nc3ccc(O)cc13)-c1cc3c(c(=O)n1C2)COC(=O)[C@]3(O)CC + CCn1c(-c2cc(N3CCN(C)CC3)cnc2C(C)OC)c2c3cc(ccc31)-c1csc(n1)CC(NC(=O)C1CC1C)C(=O)N1CCCC(N1)C(=O)OCC(C)(C)C2 ; wanted: its pIC50
Reply text: > 9.02

###

# Tested on: 782815-120-R-J1-PDC complex spheroid viability
# run_description: Anticancer human tumor 782815-120-R-J1-PDC cell line growth inhibition [RAS];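 note: spheroids exposed to compounds for 7 days before reading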;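 for viability, T/C: 100% = DMSO vehicle control viability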
# condition_info: second compound 0.003 µM; first compound 3.16 µM; stronger effect = lower value
reported_property: viability, T/C (%)
Provide the reading as a plain figure in %.

Example compounds with recorded viability, T/C:
CC1(O)CCCC1n1c(=O)c(C(F)F)cc2cnc(NC3CCN(S(C)(=O)=O)CC3)nc21 (stereo unspecified) + CCn1c(-c2cccnc2C(C)OC)c2c3cc(ccc31)N1CCOC(CC(NC(=O)C(C(C)C)N(C)C(=O)C3(F)CCN(C(=O)C#CC(C)(C)N(C)C)CC3)C(=O)N3CCCC(N3)C(=O)OCC(C)(C)C2)C1 ... 65.2
CC(=O)OC12COC1CC(O)C1(C)C(=O)C(O)C3=C(C)C(OC(=O)C(O)C(NC(=O)OC(C)(C)C)c4ccccc4)CC(O)(C(OC(=O)c4ccccc4)C21)C3(C)C (stereo unspecified) + CCn1c(-c2cccnc2C(C)OC)c2c3cc(ccc31)N1CCOC(CC(NC(=O)C(C(C)C)N(C)C(=O)C3(F)CCN(C(=O)C#CC(C)(C)N(C)C)CC3)C(=O)N3CCCC(N3)C(=O)OCC(C)(C)C2)C1 ... 27.9
CCC(CC)c1cc(NC2CCC(N)C2)n2nccc2n1 (stereo unspecified) + CCn1c(-c2cc(N3CCN(C)CC3)cnc2C(C)OC)c2c3cc(ccc31)-c1csc(n1)CC(NC(=O)C1CC1C)C(=O)N1CCCC(N1)C(=O)OCC(C)(C)C2 ... 12.1
Cc1nc(N2CCC3(CC2)COC(C)C3N)c(CO)nc1Sc1ccnc(N)c1Cl (stereo unspecified) + CCn1c(-c2cccnc2C(C)OC)c2c3cc(ccc31)N1CCOC(CC(NC(=O)C(C(C)C)N(C)C(=O)C3(F)CCN(C(=O)C#CC(C)(C)N(C)C)CC3)C(=O)N3CCCC(N3)C(=O)OCC(C)(C)C2)C1 ... 96
CCC(CC)c1cc(NC2CCC(N)C2)n2nccc2n1 (stereo unspecified) + CCn1c(-c2cccnc2C(C)OC)c2c3cc(ccc31)N1CCOC(CC(NC(=O)C(C(C)C)N(C)C(=O)C3(F)CCN(C(=O)C#CC(C)(C)N(C)C)CC3)C(=O)N3CCCC(N3)C(=O)OCC(C)(C)C2)C1 ... 48.9

Inquiry: Report viability, T/C for CC(C)NCC(C(=O)N1CCN(c2ncnc3c2C(C)CC3O)CC1)c1ccc(Cl)cc1 (stereo unspecified) + CCn1c(-c2cccnc2C(C)OC)c2c3cc(ccc31)N1CCOC(CC(NC(=O)C(C(C)C)N(C)C(=O)C3(F)CCN(C(=O)C#CC(C)(C)N(C)C)CC3)C(=O)N3CCCC(N3)C(=O)OCC(C)(C)C2)C1 tested on 782815-120-R-J1-PDC complex spheroid viability.
Reply text: 98.2
